# PROCEDURE TEXT: A qHTS for Small Molecule Inhibitors of Shiga Toxin; further: 0% is about no effect
# CONDITION SUMMARY: Vero cells, Shiga toxin protein synthesis inhibition reporter; at 38.7 µM, stronger effect = higher value
The whole screen tested about 290,000 compounds, of which about 27,000 (9.3%) were called active. What follows is part of a selection rich in actives, with near analogues and random picks from the rest.
Please go through the items and note down their inhibition.

These recorded examples may help you get a feel for the data.
# MOLECULE, READOUT NAME, REPORTED
records = [
    ("Cc1ccc(N2C(=O)CC(NCc3ccc4c(c3)OCO4)C2=O)cc1Cl (stereo unspecified)", "inhibition", "110% (active)"),
    ("CC1(c2ccc3ccccc3c2)NC(=O)NC1=O (stereo unspecified)", "inhibition", "9.07% (inactive)"),
    ("C=CCn1c(SCC(N)=O)nnc1-c1cc2c(s1)CCC(CC)C2 (stereo unspecified)", "inhibition", "76.9% (active)"),
    ("Cc1ccc(CC2CC(=O)N(c3ccc4c(c3)OCCO4)C2=O)cc1 (stereo unspecified)", "inhibition", "51.2% (inactive)"),
]

Give one value of inhibition per listed molecule.
1. CCN(CC)CCNC(=O)CCCCCn1c(=O)[nH]c2cc(C(=O)OC)ccc2c1=O
2. O=C(CN1C(=O)c2cccnc2Oc2ccc(Cl)cc21)Nc1ccc(F)cc1
3. Cc1nn(CC(=O)Nc2ccc(F)cc2)c(=O)c2ccccc12
4. Cc1ccc(CN2CCNC(=O)C2CC(=O)NCc2csc(C(C)C)n2)cc1 (stereo unspecified)

Response given:
1. 11.7% (inactive)
2. -1.35% (inactive)
3. -1.35% (inactive)
4. -6.42% (inactive)

Give one value of inhibition per listed molecule.
1. CCn1c(CSc2nc(C)cc(C)n2)nnc1SCC(N)=O
2. O=C(/C=C/c1ccc([N+](=O)[O-])cc1)NCCSCc1ccco1
3. CC(=O)NC(CC(=O)Nc1cccc(S(=O)(=O)N2CCCC2)c1)c1ccccc1 (stereo unspecified)

Response given:
1. -9.49% (inactive)
2. -2.44% (inactive)
3. -34.1% (inactive)
